Cited source: patent US20110212084A1

Below, each entry is listed with its recorded pIC50.
Target: human IgEλ (U266 derived) (human, UniProt P01854 1-546)
Sequence (P01854 whole entry): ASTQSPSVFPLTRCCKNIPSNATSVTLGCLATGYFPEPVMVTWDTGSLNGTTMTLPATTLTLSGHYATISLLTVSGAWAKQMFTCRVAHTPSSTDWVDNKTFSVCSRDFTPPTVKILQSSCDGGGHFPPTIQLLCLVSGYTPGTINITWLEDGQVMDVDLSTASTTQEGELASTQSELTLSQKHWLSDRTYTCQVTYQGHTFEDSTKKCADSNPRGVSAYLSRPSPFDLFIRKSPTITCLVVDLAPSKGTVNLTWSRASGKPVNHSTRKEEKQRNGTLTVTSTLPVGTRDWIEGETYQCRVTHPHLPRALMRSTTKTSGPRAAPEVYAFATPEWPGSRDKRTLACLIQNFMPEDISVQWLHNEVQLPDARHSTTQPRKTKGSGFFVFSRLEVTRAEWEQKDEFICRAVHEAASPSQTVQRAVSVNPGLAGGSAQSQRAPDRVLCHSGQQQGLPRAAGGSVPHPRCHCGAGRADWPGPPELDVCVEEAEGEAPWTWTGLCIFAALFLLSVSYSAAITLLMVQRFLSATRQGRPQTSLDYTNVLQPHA
Test: HTRF receptor-ligand competition, scFv titrated; Eu-cryptate human IgE (U266) binding to human FcεRI-Fc; geomean
pIC50: −log10 of the molar value.
Endpoint label: pIC50

| Binder | Endpoint label | Test result |
| --- | --- | --- |
| Antibody 6 (scFv) (scFv, V domains shown, purified scFv) VH: EVQLLESGGGLVQPGGSLRLSCAASGFTFSSYAMSWVRQAPGKGLEWVSAISGSGGRTYYADSVKGRFTISKDNSKNTLYLQMNSLRAEDTAVYYCARHIAVAGTRGFDYWGRGALVTVSS VL: SYVLTQPPSVSVSPGQTASITCSGDKLGDTYASWYRQRSGQSPVLVIYQDDKRPSGIPERFSGSNSGNTATLTISGTHTMDEADYYCLAWDTRTSGAVFGGGTKLTVL | pIC50 | 8.10 |
| Antibody 28 (scFv) (scFv, V domains shown, purified scFv) VH: EVQLLESGGGLVQPGGSLRLSCAASGFTFSSYAMSWVRQAPGKGLEWVSAISGSGGRTYYADSVKGRFTISRDNSKNTLYLQMNSLRAEDTAVYYCARLWFPAITRGFDYWGRGTLVTVSS VL: SYVLTQPPSVSVSPGQTASITCSGDKLGDTYASWYRQRSGQSPVLVIYQDDKRPSGIPERFSGSNSGNTATLTISGTHTMDEADYYCLAWDTRTSGAVFGGGTKLTVL | pIC50 | 8.40 |
